Can you tell me IC50 for the items I'm about to list?
# Tested Target: Vascular endothelial growth factor receptor 1 (Homo sapiens, UniProt P17948)
# Sequence (P17948 whole entry): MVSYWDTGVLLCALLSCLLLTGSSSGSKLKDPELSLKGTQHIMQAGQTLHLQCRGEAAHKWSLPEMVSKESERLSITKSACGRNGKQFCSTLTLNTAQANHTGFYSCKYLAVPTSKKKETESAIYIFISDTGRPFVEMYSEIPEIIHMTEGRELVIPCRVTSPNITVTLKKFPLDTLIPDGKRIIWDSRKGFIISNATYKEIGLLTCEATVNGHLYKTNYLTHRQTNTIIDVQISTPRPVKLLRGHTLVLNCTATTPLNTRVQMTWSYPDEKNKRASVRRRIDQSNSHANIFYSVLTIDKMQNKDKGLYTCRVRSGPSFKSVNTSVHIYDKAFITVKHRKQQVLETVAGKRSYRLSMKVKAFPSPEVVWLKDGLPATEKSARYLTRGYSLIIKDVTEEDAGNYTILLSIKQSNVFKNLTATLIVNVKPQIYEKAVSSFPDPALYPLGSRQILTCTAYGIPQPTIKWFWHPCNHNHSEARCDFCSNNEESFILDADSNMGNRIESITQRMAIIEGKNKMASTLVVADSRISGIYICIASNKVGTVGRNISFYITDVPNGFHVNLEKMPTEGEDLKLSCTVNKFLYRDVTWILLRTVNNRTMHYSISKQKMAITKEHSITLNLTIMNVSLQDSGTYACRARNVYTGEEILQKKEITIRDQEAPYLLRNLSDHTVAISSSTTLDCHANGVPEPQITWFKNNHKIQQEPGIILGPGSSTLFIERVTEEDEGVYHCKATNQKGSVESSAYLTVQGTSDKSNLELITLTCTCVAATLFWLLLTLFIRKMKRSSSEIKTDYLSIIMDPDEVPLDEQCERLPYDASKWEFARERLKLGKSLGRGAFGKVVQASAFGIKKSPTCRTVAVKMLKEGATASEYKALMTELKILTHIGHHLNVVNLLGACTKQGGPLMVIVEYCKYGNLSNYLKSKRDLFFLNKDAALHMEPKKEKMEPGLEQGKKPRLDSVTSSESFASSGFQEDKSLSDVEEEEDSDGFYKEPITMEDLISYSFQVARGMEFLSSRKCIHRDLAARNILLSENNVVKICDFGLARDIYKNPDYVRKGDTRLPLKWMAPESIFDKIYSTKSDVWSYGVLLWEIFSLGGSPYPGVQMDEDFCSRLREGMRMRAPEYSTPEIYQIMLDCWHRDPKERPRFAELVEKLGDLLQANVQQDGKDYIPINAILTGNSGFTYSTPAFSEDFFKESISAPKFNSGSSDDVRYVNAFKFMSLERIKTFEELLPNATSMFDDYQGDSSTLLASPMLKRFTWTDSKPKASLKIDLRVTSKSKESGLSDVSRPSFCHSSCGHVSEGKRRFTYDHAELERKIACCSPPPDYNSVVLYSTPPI
# Experiment: Inhibition of human recombinant VEGFR1 expressed in Sf9 cells after 10 mins
Give bare numbers, in µM.

Batch request: IC50 for each of the following molecules.
1. COc1cc(O)c2c(c1)/C=C/CCCC(=O)/C=C/C[C@H](C)OC2=O
2. COc1cc(O)c2c(c1)/C=C/C[C@@H](O)[C@H](O)C(=O)/C=C\C[C@H](C)OC2=O
3. COc1cc(O)c2c(c1)CCCCCC(=O)/C=C/C[C@H](C)OC2=O
4. COc1cc(O)c2c(c1)/C=C\CCCC(=O)/C=C/C[C@H](C)OC2=O

Reply text:
1. 51
2. 0.012
3. 33
4. 15

----------
# Tested Target: Glycogen synthase kinase-3 beta (Homo sapiens, UniProt P49841)
# Sequence (P49841 whole entry): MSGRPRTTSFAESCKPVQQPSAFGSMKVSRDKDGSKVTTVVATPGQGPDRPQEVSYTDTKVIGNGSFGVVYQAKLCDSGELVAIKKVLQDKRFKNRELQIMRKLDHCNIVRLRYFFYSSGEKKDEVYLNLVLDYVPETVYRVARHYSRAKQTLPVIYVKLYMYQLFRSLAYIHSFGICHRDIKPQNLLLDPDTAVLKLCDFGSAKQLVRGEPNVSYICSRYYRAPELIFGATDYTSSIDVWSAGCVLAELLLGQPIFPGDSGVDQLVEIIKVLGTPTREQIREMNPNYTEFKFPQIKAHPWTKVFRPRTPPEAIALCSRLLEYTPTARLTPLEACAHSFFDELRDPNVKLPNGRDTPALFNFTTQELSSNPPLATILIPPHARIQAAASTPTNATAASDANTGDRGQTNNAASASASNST
# Experiment: Inhibition of human recombinant GSK3-beta in cell free system after 90 mins
Property Measured: pIC50
Give bare numbers, as −log10 of the molar value.

Inquiry: So what's the measured pIC50 for this one? "COc1cc(O)c2c(c1)/C=C/C[C@@H](O)[C@H](O)C(=O)/C=C\C[C@H](C)OC2=O"
Reply text: 4.74

----------
Can you tell me pIC50 for the items I'm about to list?
# Tested Target: UniProt:P36888
# Sequence (P36888 whole entry): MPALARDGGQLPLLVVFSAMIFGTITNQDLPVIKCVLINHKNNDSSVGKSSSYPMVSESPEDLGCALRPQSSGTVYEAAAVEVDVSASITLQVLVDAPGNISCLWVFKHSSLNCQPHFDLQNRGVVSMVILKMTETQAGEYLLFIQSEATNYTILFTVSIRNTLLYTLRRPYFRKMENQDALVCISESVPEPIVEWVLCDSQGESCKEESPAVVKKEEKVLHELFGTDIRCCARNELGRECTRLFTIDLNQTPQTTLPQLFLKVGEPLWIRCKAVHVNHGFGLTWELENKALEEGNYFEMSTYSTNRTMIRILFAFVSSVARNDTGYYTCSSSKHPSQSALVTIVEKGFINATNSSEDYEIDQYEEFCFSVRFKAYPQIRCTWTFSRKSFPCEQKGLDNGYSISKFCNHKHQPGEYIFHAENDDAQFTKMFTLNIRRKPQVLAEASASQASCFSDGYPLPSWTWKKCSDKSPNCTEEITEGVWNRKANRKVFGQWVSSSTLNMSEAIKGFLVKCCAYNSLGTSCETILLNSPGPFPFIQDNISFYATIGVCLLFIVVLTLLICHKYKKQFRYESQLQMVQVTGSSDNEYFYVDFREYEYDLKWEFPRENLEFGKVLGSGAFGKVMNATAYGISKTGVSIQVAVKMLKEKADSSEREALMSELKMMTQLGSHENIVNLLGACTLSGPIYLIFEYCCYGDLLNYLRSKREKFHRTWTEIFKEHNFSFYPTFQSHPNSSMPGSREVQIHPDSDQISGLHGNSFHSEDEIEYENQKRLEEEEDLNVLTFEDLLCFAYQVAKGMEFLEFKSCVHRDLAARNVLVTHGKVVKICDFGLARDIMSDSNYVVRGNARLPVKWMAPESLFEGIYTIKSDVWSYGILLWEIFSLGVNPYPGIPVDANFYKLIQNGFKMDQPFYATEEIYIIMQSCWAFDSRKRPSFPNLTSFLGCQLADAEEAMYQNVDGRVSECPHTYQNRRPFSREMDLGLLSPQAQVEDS
# Experiment: Inhibition of human recombinant FLT-3 kinase expressed in insect cells after 90 mins
Numbers only, as −log10 of the molar value.

Below are worked cases with known answers.
>  <Smiles Entry>
COc1cc(O)c2c(c1)CCCCCC(=O)/C=C\C[C@H](C)OC2=O

>  <pIC50>
6.07

$$$$
>  <Smiles Entry>
COc1cc(O)c2c(c1)/C=C\CCCC(=O)/C=C/C[C@H](C)OC2=O

>  <pIC50>
6.23

$$$$
>  <Smiles Entry>
COc1cc(O)c2c(c1)/C=C/C[C@@H](O)[C@H](O)C(=O)/C=C\C[C@H](C)OC2=O

>  <pIC50>
8.31

$$$$
>  <Smiles Entry>
COc1cc(O)c2c(c1)/C=C/CCCC(=O)/C=C/C[C@H](C)OC2=O

>  <pIC50>
6.48

$$$$

Inquiry: So what's the measured pIC50 for this one? "COc1cc(O)c2c(c1)CCCCCC(=O)/C=C/C[C@H](C)OC2=O"
Reply text: 6.48
